# Tested on: Acinetobacter baumannii ATCC17961
# PROCEDURE_TEXT: Antimicrobial susceptibility testing: 90% growth inhibitory concentration (IC90) determination, Iso-Sensitest broth
# Type: cell-based
# COND: Acinetobacter baumannii, ATCC17961, 90% growth inhibitory concentration, Acinetobacter baumannii ATCC17961, Iso-Sensitest broth; read-out: ATCC 17961 IC90
Where a name gives a salt, the structure may show the parent alone.
READOUT_NAME: IC90 (nM)

COMPOUND | READOUT_NAME | TEST_VALUE
COc1ccc(-c2cnc(C(=O)Nc3ccc(C(=O)N4CCN(C(=O)CCCN)CC4)c(Cl)c3)n2C)c(F)c1F [Example 121, formic acid] | IC90 | 40

P: CN(C)c1ccc(-c2cnc(C(=O)Nc3ccc(C(=O)N4CCN(C(=O)C5CCNCC5)CC4)c(Cl)c3)n2C)c(F)c1F [Example 262, formate]
Q: COc1ccc(-c2cnc(C(=O)Nc3ccc(C(=O)N4CCN(C(=O)[C@@H]5CCNC[C@@H]5O)CC4)c(Cl)c3)n2C)c(F)c1F [Example 228]
For this pair, P and Q , which shows a numerically higher IC90? Refer to your chosen entry by its label in the reply.
Q
(Q: 180 nM, P: 70 nM)

1: Cn1c(-c2ccc(OCC#N)c(F)c2F)cnc1C(=O)Nc1ccc(C(=O)N2CCC(C(=O)N3CC4(CNC4)C3)CC2)c(Cl)c1 [Example 85, 2,2,2-trifluoroacetate]
2: COc1ccc(-c2cnc(C(=O)Nc3ccc(C(=O)N4CCC(OCC5CNC5)CC4)c(Cl)c3)n2C)c(F)c1F [Example 23, formate]
3: Cn1c(-c2ccc(OC(F)F)c(F)c2F)cnc1C(=O)Nc1ccc(C(=O)N2CCC(C(=O)N[C@@H]3CCNC3)CC2)c(Cl)c1 [Example 91, formate]
4: COc1ccc(-c2cnc(C(=O)Nc3ccc(C(=O)N4CCN(C(=O)[C@H]5CCNC[C@H]5O)CC4)c(Cl)c3)n2C)c(F)c1F [Example 229]
Rank entries according to their IC90, from the largest number down. State the ranking by listing the labels in the requested order.
1, 4, 2, 3
(1: 150 nM, 4: 90 nM, 2: 60 nM, 3: 40 nM)

====

# System: Acinetobacter baumannii ATCC17961
# PROCEDURE_TEXT: Antimicrobial susceptibility testing: 90% growth inhibitory concentration (IC90) determination, Iso-Sensitest broth
# Format: cell-based
# COND: Acinetobacter baumannii, ATCC17961, 90% growth inhibitory concentration, Acinetobacter baumannii ATCC17961, Iso-Sensitest broth; read-out: ATCC 17961 IC90
Structures can show the parent of a compound that is named as a salt.
READOUT_NAME: IC90 (nM)

MOLECULE | IC90, nM
COc1ccc(-c2cnc(C(=O)Nc3ccc(C(=O)N4CCN(CC(N)=O)CC4)c(Cl)c3)n2C)c(F)c1F | 100

P: Cn1c(-c2ccc(CC#N)cc2F)cnc1C(=O)Nc1ccc(C(=O)N2CCN(C(=O)C3CCNCC3)CC2)c(Cl)c1 [Example 256, formate]
Q: COc1ccc(-c2cnc(C(=O)Nc3ccc(C(=O)N4CCN(C(=O)CC5CCNC5)CC4)c(Cl)c3)n2C)c(F)c1F (centres unmarked) [Example 151, formate]
Given P and Q , report the one with the higher recorded IC90. Selection: enter the item's label.
P

I: COc1ccc(-c2cnc(C(=O)Nc3ccc(C(=O)N4CCN(C(=O)N[C@H]5CNC[C@@H]5O)CC4)c(C)c3)n2C)c(F)c1F [Example 285, formate]
II: Cn1c(-c2ccc(OC(F)F)c(F)c2Cl)cnc1C(=O)Nc1ccc(C(=O)N2CCN(C(=O)CC3(O)CCNCC3)CC2)c(Cl)c1 [Example 172, formate]
Please tell me which of the two, I or II , has the higher reported IC90 value. Field: selected label. Fill in the label of the entry you choose.
I
(I: 100 nM, II: 50 nM)

1: Cn1c(-c2ccc(OC(F)F)cc2F)cnc1C(=O)Nc1ccc(C(=O)N2CCN(C(=O)C[C@@H]3CCCN3)CC2)c(Cl)c1 [Example 159, formate]
2: COc1ccc(-c2cnc(C(=O)Nc3ccc(C(=O)N4CCN(C(=O)CN5CCC(O)C5)CC4)c(Cl)c3)n2C)c(F)c1F (centres unmarked) [Example 294, formate]
Please state the entry with greater IC90 among 1 and 2 . Indicate which entry you chose by stating its label.
1
(1: 70 nM, 2: 40 nM)

Values were extracted from patent US20220396565A1.
